Please provide measured EC50 for the entries that follow.
target: UniProt:P23458; assay: Inhibition of JAK1-mediated STAT3 phosphorylation in IL6-induced human TF1 cells
Sequence (P23458 whole entry): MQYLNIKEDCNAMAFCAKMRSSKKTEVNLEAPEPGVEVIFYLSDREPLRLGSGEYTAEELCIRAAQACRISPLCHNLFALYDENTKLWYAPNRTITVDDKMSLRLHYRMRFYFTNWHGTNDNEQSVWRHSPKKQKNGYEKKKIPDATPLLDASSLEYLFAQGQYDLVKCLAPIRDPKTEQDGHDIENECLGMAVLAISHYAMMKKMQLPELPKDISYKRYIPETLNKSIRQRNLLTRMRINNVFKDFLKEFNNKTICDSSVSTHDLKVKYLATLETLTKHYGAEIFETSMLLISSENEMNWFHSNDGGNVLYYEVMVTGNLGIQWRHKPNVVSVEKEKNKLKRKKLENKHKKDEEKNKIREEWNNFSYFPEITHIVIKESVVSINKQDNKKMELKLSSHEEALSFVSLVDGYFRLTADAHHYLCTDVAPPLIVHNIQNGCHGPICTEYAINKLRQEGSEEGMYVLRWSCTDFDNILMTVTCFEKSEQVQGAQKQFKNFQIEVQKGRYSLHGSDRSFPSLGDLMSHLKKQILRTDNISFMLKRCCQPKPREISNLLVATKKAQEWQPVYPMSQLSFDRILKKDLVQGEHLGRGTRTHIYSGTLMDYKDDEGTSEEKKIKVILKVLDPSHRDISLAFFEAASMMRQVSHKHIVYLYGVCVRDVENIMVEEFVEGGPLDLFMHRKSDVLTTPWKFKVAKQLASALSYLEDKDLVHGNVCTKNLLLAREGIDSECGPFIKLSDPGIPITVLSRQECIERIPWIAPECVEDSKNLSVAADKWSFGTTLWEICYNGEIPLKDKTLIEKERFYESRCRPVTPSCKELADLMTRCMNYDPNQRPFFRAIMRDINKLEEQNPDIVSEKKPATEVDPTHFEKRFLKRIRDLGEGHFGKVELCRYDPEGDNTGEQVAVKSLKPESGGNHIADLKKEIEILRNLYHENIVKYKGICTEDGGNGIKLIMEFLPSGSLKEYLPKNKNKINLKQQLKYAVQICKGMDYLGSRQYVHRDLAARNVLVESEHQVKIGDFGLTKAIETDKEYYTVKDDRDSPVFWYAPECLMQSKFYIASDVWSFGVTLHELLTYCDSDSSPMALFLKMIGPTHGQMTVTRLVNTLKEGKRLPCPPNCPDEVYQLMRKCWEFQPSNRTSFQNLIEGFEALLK
Answers are plain numbers, in nM.

[[record]]
smiles_repr = "c1ccc(CN2CCC(n3nnc4cnc5[nH]ccc5c43)CC2)cc1"
target_under_test = "UniProt:P23458"
reported_property = "EC50"
reported_measurement = 121

[[record]]
smiles_repr = "N#CCC(=O)N1CCC[C@@H](n2nnc3cnc4[nH]ccc4c32)C1"
target_under_test = "UniProt:P23458"
reported_property = "EC50"
reported_measurement = 114

[[record]]
smiles_repr = "c1cncc(CN2CCC(n3nnc4cnc5[nH]ccc5c43)CC2)c1"
target_under_test = "UniProt:P23458"
reported_property = "EC50"
reported_measurement = 414

[[record]]
smiles_repr = "N#CCCN1CCC(n2nnc3cnc4[nH]ccc4c32)CC1"
target_under_test = "UniProt:P23458"
reported_property = "EC50"
reported_measurement = 138


Now, please, on to the next molecule.
Would you kindly share the measured EC50 for "COC(=O)N[C@H]1CC[C@H](n2nnc3cnc4[nH]ccc4c32)CC1" ?
433

###

experiment: Half life in human liver microsomes; assay type: ADME, Microsome
Kindly return 1 (yes) if reported half-life is no lower than 300 min; return 0 (no) if it is lower.

Look over these answered cases.
[[record]]
molecule = "c1cc2c(ncc3nnn(CC4CCNCC4)c32)[nH]1"
label_value = "0 (no)"

[[record]]
molecule = "c1ccc(CN2CCC[C@@H](n3nnc4cnc5[nH]ccc5c43)C2)cc1"
label_value = "0 (no)"

[[record]]
molecule = "c1cncc(CN2CCC(n3nnc4cnc5[nH]ccc5c43)CC2)c1"
label_value = "0 (no)"

[[record]]
molecule = "F[C@@H]1CNCC[C@H]1n1nnc2cnc3[nH]ccc3c21 (racemic)"
label_value = "1 (yes)"

[[record]]
molecule = "CC(C)(C)OC(=O)N[C@H]1CC[C@H](n2nnc3cnc4[nH]ccc4c32)CC1"
label_value = "0 (no)"

[[record]]
molecule = "CC(C)CC(=O)N[C@H]1CC[C@H](n2nnc3cnc4[nH]ccc4c32)CC1"
label_value = "0 (no)"

[[record]]
molecule = "COC(=O)N[C@H]1CC[C@H](n2nnc3cnc4[nH]ccc4c32)CC1"
label_value = "0 (no)"

[[record]]
molecule = "N[C@H]1CC[C@H](n2nnc3cnc4[nH]ccc4c32)CC1"
label_value = "0 (no)"

[[record]]
molecule = "CC1(n2nnc3cnc4[nH]ccc4c32)CCN(S(C)(=O)=O)CC1"
label_value = "1 (yes)"


Kindly review the next molecule as well.
State whether the measured half-life reaches 300 min, counting equality as reaching it, for COC(=O)N[C@@H]1CC[C@@H](n2nnc3cnc4[nH]ccc4c32)C1 (racemic)
0 (no)

###

Please provide measured logD for the entries that follow.
assay: Lipophilicity, log D of the compound at pH 7.2; type: physicochemical; conditions: buffer
Numbers only.

[[record]]
smiles_repr = "c1cncc(CN2CCC(n3nnc4cnc5[nH]ccc5c43)CC2)c1"
reported_measurement = 2.03


Would you be so kind as to report logD for each listed record?
1. N#CCCN1CCC(n2nnc3cnc4[nH]ccc4c32)CC1
2. N#CCCO[C@H]1CC[C@H](n2nnc3cnc4[nH]ccc4c32)CC1

1. 1.12
2. 1.36
